Readings of pIC50 for the listed molecules
- Test system: OPM-2
- Protocol Text: WST anti-proliferative assay, multiple myeloma cell line OPM-2
- Format: cell-based
- Recorded Conditions: Homo sapiens; OPM-2 cells, 72 hours, CCK-8
Give only the number. pIC50 is defined as minus log10 of concentration in molar units.

# Molecule, Target Entity, pIC50
measured = [
    ("O=C(NO)c1ccc(NC2CC(=O)N(c3ccccc3Cl)C2)cc1 (stereo not drawn)", "OPM-2", 5.46),
    ("CC1(Nc2ccc(C(=O)NO)cc2)CCN(c2ccc(Cl)cc2)C1=O (stereo not drawn)", "OPM-2", 5.40),
    ("O=C(NO)c1ccc(NC2CC(=O)N(c3ccc(F)cc3)C2)cc1 (stereo not drawn)", "OPM-2", 5.19),
    ("O=C(NO)c1ccc(NC2CC(=O)N(c3ccc(Cl)cc3)C2)cc1 (stereo not drawn)", "OPM-2", 5.31),
]

Read off the recorded pIC50 for CC(C)(c1ccccc1)N1CCC(Nc2ccc(C(=O)NO)cc2)C1=O (stereo not drawn)
5.44

Specify measured pIC50 for O=C(NO)c1ccc(NC2CCN(c3ccc(Cl)cc3)C2=O)cc1 (stereo not drawn) .
5.25
